assay protocol: gradient 5% acetonitrile 3 min, to 50% in 2 min, to 85% in 15 min, held 3 min, 100 µL/min
assay conditions: column: Zorbax Extend-C18 2.1 x 50 mm; eluents: water / acetonitrile, 0.1% formic acid
endpoint name: RP-LC retention time (s)
Give the number; s is assumed, so skip it.

Some entries whose results are on file:
INSERT INTO assay_data (molecule, endpoint_name, recorded_value) VALUES
  ('CS(=O)(=O)N(Cc1ccncc1)C1CN(C(=O)c2ccc3ncccc3c2)C1', 'RP-LC retention time', 698),
  ('COCCCNC(=O)N1CCCC(C)(C(=O)NCc2ccc(C)cc2)C1 (stereo not given)', 'RP-LC retention time', 720),
  ('CN(C)c1cnc(-n2cc(NC(=O)c3ccc(C#N)cc3)cn2)nc1', 'RP-LC retention time', 716),
  ('CCN(CC)C(=O)Cn1ccc2ccc(-c3nnc(C)o3)cc21', 'RP-LC retention time', 718);

Let's switch to this molecule now.
Entry under review: CN(C)C(=O)c1cc2c(s1)CCC(C(=O)NC1CCCC1)C2 (stereo not given) . Reported RP-LC retention time?
696
